Each item that follows carries a reported IC50.
Target: UniProt:P08069
Assay: Cellular IGF-1R assay: capture ELISA (MSD) of receptor phosphorylation in Hek293 cells
Settings: Hek293-IGF1R cells, 1 h pre-incubation, 10 min IGF stimulation, pIGF1R capture ELISA
Dear colleague, please return just the value in nM, with no unit written.

Ask | Need IC50, item Nc1ncnc2c1c(-c1cccc(OCC34CCC(CC3)O4)c1)cn2[C@H]1C[C@](O)(CN2CC(O)C2)C1 [Example 199]
Reply | 201

Ask | Need IC50, item Nc1ncnc2c1c(-c1cccc(OCC34CCC(CC3)O4)c1)cn2C1CC(O)(CN2CCC(O)C2)C1 (single isomer, unassigned) [Example 206]
Reply | 288

====

Target: IGF-1R (Homo sapiens, UniProt P08069)
Sequence (P08069 31-1367): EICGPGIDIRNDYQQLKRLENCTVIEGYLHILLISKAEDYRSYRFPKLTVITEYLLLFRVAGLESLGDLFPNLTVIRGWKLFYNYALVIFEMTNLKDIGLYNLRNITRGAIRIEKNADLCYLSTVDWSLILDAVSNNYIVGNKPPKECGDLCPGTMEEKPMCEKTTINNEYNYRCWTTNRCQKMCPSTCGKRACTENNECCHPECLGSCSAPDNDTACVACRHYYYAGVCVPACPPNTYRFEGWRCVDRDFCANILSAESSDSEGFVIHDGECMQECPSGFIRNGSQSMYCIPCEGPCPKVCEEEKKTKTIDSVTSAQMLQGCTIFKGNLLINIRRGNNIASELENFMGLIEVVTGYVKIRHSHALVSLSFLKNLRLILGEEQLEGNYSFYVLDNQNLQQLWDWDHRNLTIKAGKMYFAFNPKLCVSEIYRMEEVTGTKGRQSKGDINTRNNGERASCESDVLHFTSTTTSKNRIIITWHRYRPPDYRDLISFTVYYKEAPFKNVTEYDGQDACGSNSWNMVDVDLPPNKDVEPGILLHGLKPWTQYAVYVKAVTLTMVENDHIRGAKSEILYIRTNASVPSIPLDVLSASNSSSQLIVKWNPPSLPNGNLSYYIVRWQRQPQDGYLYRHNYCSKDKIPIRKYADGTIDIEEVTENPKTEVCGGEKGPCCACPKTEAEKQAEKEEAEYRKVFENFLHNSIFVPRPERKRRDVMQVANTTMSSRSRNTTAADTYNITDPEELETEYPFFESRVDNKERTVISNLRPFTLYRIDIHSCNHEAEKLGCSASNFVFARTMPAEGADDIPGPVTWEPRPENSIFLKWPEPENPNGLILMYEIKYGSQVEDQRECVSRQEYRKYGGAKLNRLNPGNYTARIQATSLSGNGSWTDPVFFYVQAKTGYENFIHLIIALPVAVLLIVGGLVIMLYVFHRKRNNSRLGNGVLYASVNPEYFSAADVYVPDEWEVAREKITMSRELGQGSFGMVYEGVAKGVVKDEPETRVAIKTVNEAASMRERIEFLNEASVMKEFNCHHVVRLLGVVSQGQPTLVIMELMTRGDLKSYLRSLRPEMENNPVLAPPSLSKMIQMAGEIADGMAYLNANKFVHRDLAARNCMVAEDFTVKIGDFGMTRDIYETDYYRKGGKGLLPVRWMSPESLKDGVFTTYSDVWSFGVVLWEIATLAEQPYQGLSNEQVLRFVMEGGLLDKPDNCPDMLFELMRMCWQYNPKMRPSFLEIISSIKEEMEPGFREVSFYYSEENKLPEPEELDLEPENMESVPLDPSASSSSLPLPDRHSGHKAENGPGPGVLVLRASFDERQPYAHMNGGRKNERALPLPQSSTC
Test: Cellular IGF-1R assay: capture ELISA (MSD) of receptor phosphorylation in Hek293 cells
Conditions: Hek293-IGF1R cells, 1 h pre-incubation, 10 min IGF stimulation, pIGF1R capture ELISA
Each item that follows carries a reported IC50.

Observe how each entry below is paired with its result.
{"molecule": "CN1CCN(C[C@H]2C[C@@H](n3cc(-c4cccc(OCC56CCC(CC5)O6)c4)c4c(N)ncnc43)C2)CC1=O (relative stereo)", "IC50": "115 to 194 nM"}
{"molecule": "CC12CCC(COc3cccc(-c4cn([C@H]5C[C@@H](CN6CCS(=O)(=O)CC6)C5)c5ncnc(N)c45)c3)(CC1)O2 (relative stereo)", "IC50": "24 to 54 nM"}
{"molecule": "Nc1ncnc2c1c(-c1cccc(OC[C@@H]3CCCO3)c1)cn2[C@H]1C[C@@H](CN2CCC(F)(F)CC2)C1", "IC50": "90 to 219 nM"}
{"molecule": "NC(=O)[C@@H]1CCCN1C[C@H]1C[C@@H](n2cc(-c3cccc(OCC4CCCCO4)c3)c3c(N)ncnc32)C1 (some centres unmarked)", "IC50": "26 to 39 nM"}

Next:
Ask | Lab note: need IC50 with IGF-1R (Homo sapiens, UniProt P08069) for entry Nc1ncnc2c1c(-c1cccc(OCC3CCCCO3)c1)cn2[C@H]1C[C@@H](CN2CCC2)C1 (mixture of isomers) , please look it up.
Reply | 119 to 139 nM

====

Each item that follows carries a reported IC50.
Target: IGF-1R (Homo sapiens, UniProt P08069)
Construct: expressed in transfected cells; host or cells: Hek293 (Hek293-IGF1R)
Assay: Cellular IGF-1R assay: capture ELISA (MSD) of receptor phosphorylation in Hek293 cells
Assay type: cell-based
Conditions: Hek293-IGF1R cells, 1 h pre-incubation, 10 min IGF stimulation, pIGF1R capture ELISA
Method: In this assay the activity of the compounds of the invention against Insulin-like growth factor I (IGF-I) induced autophosphorylation of the IGF-IR was determined. The assay was conducted as follows: Compound-mediated inhibition of IGF1R and INSR phosphorylation in Hek293 cells transduced with the corresponding receptors was assessed in a capture ELISA format using the MSD (Meso Scale Discovery) platform. […] IC50 values [nM] were determined using 4-parametric curve-fitting (XLfit software, V4.3.2). […]

{"compound": "CC(=O)NC[C@H]1C[C@@H](n2cc(-c3cccc(OCC45CCC(CC4)O5)c3)c3c(N)ncnc32)C1", "result": "47 to 112 nM"}

Ask | Lab note: need IC50 with IGF-1R (Homo sapiens, UniProt P08069) for entry CC1(C)CCC(COc2cccc(-c3cn([C@H]4C[C@@H](CN5CCC(F)(F)CC5)C4)c4ncnc(N)c34)c2)O1 (single isomer, unassigned) [Example 55] , please look it up.
Reply | 22 to 38 nM

Ask | Lab note: need IC50 with IGF-1R (Homo sapiens, UniProt P08069) for entry Cc1nccn1C[C@H]1C[C@@H](n2cc(-c3cccc(OCC45CCC(C)(CC4)O5)c3)c3c(N)ncnc32)C1 (relative stereo) , please look it up.
Reply | 106 to 448 nM

Ask | Lab note: need IC50 with IGF-1R (Homo sapiens, UniProt P08069) for entry [2H]C([2H])(Oc1cccc(-c2cn([C@H]3C[C@@H](CN4CCS(=O)(=O)CC4)C3)c3ncnc(N)c23)c1)C12CCC(CC1)O2 , please look it up.
Reply | 7 to 14 nM

Ask | Lab note: need IC50 with IGF-1R (Homo sapiens, UniProt P08069) for entry NC(=O)[C@H]1CCCN1C[C@H]1C[C@@H](n2cc(-c3cccc(OCC4CCCCO4)c3)c3c(N)ncnc32)C1 (some centres unmarked) , please look it up.
Reply | 149 to 152 nM
